Tested on: TK-10 renal
ASSAY: NCI-60 one-dose screen, 48 h (100 = growth as untreated, 0 = no growth, -100 = all killed)
ASSAY_SETUP: 10 µM
About 83,000 compounds went through this panel and 20% of them were active in at least one assay; those are over-represented in the sample as a whole.
ASSAY_METRIC: growth (%)
# unit: % | format: bare number

## Task Observed growth on TK-10 renal for C#CCn1c(-c2cccc(OCCCCl)c2)nc2c1c(=O)n(C)c(=O)n2C , please.
## Result 101

## Task Observed growth on TK-10 renal for COc1ccc(-c2oncc2-c2cc(OC)c3c(c2)OCO3)cc1 , please.
## Result 48.2

## Task Observed growth on TK-10 renal for Cc1nc(N)sc1Sc1nc2ccc(Cl)cc2c(=O)n1-c1ccc(Oc2ccccc2)cc1 , please.
## Result 89

## Task Observed growth on TK-10 renal for Cc1ccccc1[P+](Cc1ccccc1)(c1ccccc1)c1ccccc1 , please.
## Result 21.4

## Task Observed growth on TK-10 renal for CCOC(=O)[C@@H]1[C@H](c2ccccc2)[C@H]([N+](=O)[O-])[C@H](c2cn(-c3ccccc3)nc2C)N1Cc1ccccc1 , please.
## Result 106

## Task Observed growth on TK-10 renal for COc1cc(-c2nc(-c3nnc(-c4cccnc4)o3)c3ccccn23)cc(OC)c1OC , please.
## Result 109

## Task Observed growth on TK-10 renal for O=C(NC1CCCC1)c1ccc(N2CCC(NCc3cccc(C(F)(F)F)c3)CC2)cc1 , please.
## Result 101

## Task Observed growth on TK-10 renal for CCCCCc1cc[n+](CC(=O)c2ccc(Cl)cc2)cc1 , please.
## Result 98.4

## Task Observed growth on TK-10 renal for N#CC1C=Cc2c(ccc3ccccc23)N1C(=O)c1ccccc1 (stereo unspecified) , please.
## Result 52.8

## Task Observed growth on TK-10 renal for NC1CCC(Nc2nc(NCc3ccc(-c4ccco4)nc3)c3ncn(C4CCCC4)c3n2)CC1 (stereo unspecified) , please.
## Result 3.91

## Task Observed growth on TK-10 renal for O=[N+]([O-])c1ccc(S(=O)(=O)OCCCCOS(=O)(=O)c2ccc([N+](=O)[O-])cc2)cc1 , please.
## Result 113

## Task Observed growth on TK-10 renal for CCCCCCCCCCCCCC[n+]1ccc(C)cc1 , please.
## Result -41.2

## Task Observed growth on TK-10 renal for COc1ccc(NC(=O)CCn2cnc3c(cc(-c4ccccc4)n3-c3ccccc3)c2=O)cc1 , please.
## Result 105

## Task Observed growth on TK-10 renal for COc1cccc2c1C(=O)c1c(O)c3c(c(O)c1C2=O)C[C@@](O)(C(=O)COC(=O)c1cccnc1)C[C@@H]3OC1CC(N)C(O)C(C)O1 (stereo partly specified) , please.
## Result -9.29

## Task Observed growth on TK-10 renal for c1ccc(CC(NCCNC(Cc2ccccc2)c2ccccc2)c2ccccc2)cc1 (stereo unspecified) , please.
## Result 61.1

## Task Observed growth on TK-10 renal for O=S(=O)(NC1c2ccccc2Oc2ccccc21)c1cc(Cl)ccc1Cl , please.
## Result 95.6

## Task Observed growth on TK-10 renal for Nc1ncc(-c2ccc(C(F)(F)F)cc2)c(NC2CCCCCC2)n1 , please.
## Result 36.9

## Task Observed growth on TK-10 renal for CN1CCN(c2nc(-c3cccnc3)nc3sc4c(c23)CCCCCC4)CC1 , please.
## Result 108

## Task Observed growth on TK-10 renal for c1ccc(CNc2nc(Nc3ccc(-c4nc5ccccc5[nH]4)cc3)c3cn[nH]c3n2)cc1 , please.
## Result 20.4

## Task Observed growth on TK-10 renal for CN(C)Cc1cccs1 , please.
## Result 101

## Task Observed growth on TK-10 renal for Cc1ccc([P+](Cc2ccc([N+](=O)[O-])cc2)(c2ccc(C)cc2)c2ccc(C)cc2)cc1 , please.
## Result 49.1

## Task Observed growth on TK-10 renal for CC(C)/C(=N/O)c1ccccc1 , please.
## Result 104

## Task Observed growth on TK-10 renal for Cc1cc(C)c(/C=C2\C(=O)Nc3ccc(NC(=O)CCCCCCC(=O)NO)cc32)[nH]1 , please.
## Result 10.6

## Task Observed growth on TK-10 renal for CN(C)c1ccc2cc(-c3cc4c(oc3=O)-c3ccccc3OC4O)c(=O)oc2c1 (stereo unspecified) , please.
## Result -36.4

## Task Observed growth on TK-10 renal for CC(=O)Nc1ccc(Sc2ccc(NC(C)=O)cc2)cc1 , please.
## Result 92.2

## Task Observed growth on TK-10 renal for NC1CCC(Nc2nc(NCc3cc(Cl)ccc3O)c3ncn(C4CCCC4)c3n2)CC1 (stereo unspecified) , please.
## Result -3.98

## Task Observed growth on TK-10 renal for Fc1ccc2[nH]c3c(NCCCN4CCOCC4)ncnc3c2c1 , please.
## Result 12.7

## Task Observed growth on TK-10 renal for CCN(CC)CCCOC(=O)Nc1ccccc1Cl , please.
## Result 98.9

## Task Observed growth on TK-10 renal for Oc1ccccc1-c1nnc(Cn2c(Cc3cccc4ccccc34)nc3ccccc32)o1 , please.
## Result 99.2

## Task Observed growth on TK-10 renal for Nc1ncncc1-c1ccc(F)cc1 , please.
## Result 116

## Task Observed growth on TK-10 renal for COc1ccc(-c2nc(NC(=O)CS(=O)(=O)c3ccc(F)cc3)sc2C)cc1 , please.
## Result 98.4

## Task Observed growth on TK-10 renal for CN(C)c1ccc2c(c1)OC(N)=C(C#N)C2c1ccc2c(c1)CCO2 (stereo unspecified) , please.
## Result 79.1

## Task Observed growth on TK-10 renal for CCCCCCCCCCCCCCCCCBr , please.
## Result 108

## Task Observed growth on TK-10 renal for O=c1cc(CSc2nnc(-c3ccccc3)n2-c2ccc(F)cc2)c2ccc3ccccc3c2o1 , please.
## Result 104

## Task Observed growth on TK-10 renal for Cc1ccc(S(=O)(=O)Nc2cccc3[nH]c(C(F)(F)F)nc23)cc1 , please.
## Result 36.7

## Task Observed growth on TK-10 renal for COc1c(C)c(C)c(OC)c2c1[nH]c(=O)c1c3cccnc3cn21 , please.
## Result 117
